- Test system: Mewo (Melanoma);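 further: after 72 h of two-drug dosing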
- procedure_text: Bliss excess, mean over the matrix (fraction); higher = more synergy
Reported Bliss excess values follow for various molecules
Enter a number only.

COc1cccc(OCCCN)c1-c1cc(Nc2cnc(C#N)cn2)n[nH]1 [Prexasertib] + Cc1cc2ncnn2cc1Nc1ncc2c(n1)n(C1CCOCC1)c(=O)n2C [AZD7648] (first compound max 1 µM, 7x7, partner max 10 µM) :: -0.0079

# input Please tell me: Bliss excess of Cc1c2c(nn1C)CSCc1cc(n(C)n1)CSc1cc(c3ccccc3c1)OCCCc1c(C(=O)O)n(C)c3c-2c(Cl)ccc13 [AZD5991] + Nc1ccn([C@@H]2O[C@H](CO)[C@@H](O)C2(F)F)c(=O)n1 [Gemcitabine] (first compound max 1 µM, 7x7, partner max 0.3 µM) , system Mewo (Melanoma)?;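 further: after 72 h of two-drug dosing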
# output -0.0395

# input Please tell me: Bliss excess of COc1cccc(OCCCN)c1-c1cc(Nc2cnc(C#N)cn2)n[nH]1 [Prexasertib] + CCc1c2c(nc3ccc(O)cc13)-c1cc3c(c(=O)n1C2)COC(=O)[C@]3(O)CC [SN-38] (first compound max 1 µM, 7x7, partner max 0.3 µM) , system Mewo (Melanoma)?;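 further: after 72 h of two-drug dosing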
# output 0.0881

# input Please tell me: Bliss excess of O=C(c1cc(Cc2n[nH]c(=O)c3ccccc23)ccc1F)N1CCN(C(=O)C2CC2)CC1 [Olaparib] + COc1nnc2ccc(N3CCC(c4ccc(OCCN5CCN(C)C(=O)[C@H]5C)cc4)CC3)nn12 [AZD5153] (first compound max 10 µM, 7x7, partner max 1 µM) , system Mewo (Melanoma)?;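 further: after 72 h of two-drug dosing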
# output -0.074
